test: Critical mole ratio or critical mass ratio of medicines and beta-cyclodextrin derivative (Table 1, examples); assay type: physicochemical; conditions: beta-cyclodextrin derivative (hydroxide propyl beta-cyclodextrin in the examples) to medicine; complex dissolves exactly in water to stable solution
// NB: equality with 5 counts as label 0; only Critical value mole ratio strictly below is label 1

Could you please tell me whether Critical value mole ratio recorded for `OC(CCCN1CCCCC1)(c1ccccc1)c1ccccc1` is less than 5?
label 1

Given the entry `CC[C@H](C)C(=O)O[C@H]1C[C@@H](C)C=C2C=C[C@H](C)[C@H](CC[C@@H]3C[C@@H](O)CC(=O)O3)[C@H]21` , would its reported Critical value mole ratio be below 5?
label 0

Determine whether this compound shows Critical value mole ratio lower than 5 (ties excluded): `COc1cc(Cc2cnc(N)nc2N)cc(OC)c1OC`
label 1

Determine whether this compound shows Critical value mole ratio lower than 5 (ties excluded): `CC[C@H]1OC(=O)[C@H](C)[C@@H](O[C@H]2C[C@@](C)(OC)[C@@H](O)[C@H](C)O2)[C@H](C)[C@@H](O[C@@H]2O[C@H](C)C[C@H](N(C)C)[C@H]2O)[C@](C)(OC)C[C@@H](C)C(=O)[C@H](C)[C@@H](O)[C@]1(C)O`
label 0

# check: Critical value mole ratio < 5 for `CC(=O)O[C@H]1C(=O)[C@@]2(C)[C@H]([C@H](OC(=O)c3ccccc3)[C@]3(O)C[C@H](OC(=O)[C@H](O)[C@@H](NC(=O)c4ccccc4)c4ccccc4)C(C)=C1C3(C)C)[C@]1(OC(C)=O)CO[C@@H]1C[C@@H]2O`
label 0

State whether 5 exceeds Critical value mole ratio recorded for `Cc1ccc(-c2nc3ccc(C)cn3c2CC(=O)N(C)C)cc1` .
label 1

Given the entry Clc1ccc(COC(Cn2ccnc2)c2ccc(Cl)cc2Cl)c(Cl)c1 (centres unmarked) , would its reported Critical value mole ratio be below 5?
label 0

* * *

test: Critical mole ratio or critical mass ratio of medicines and beta-cyclodextrin derivative (Table 1, examples); type: physicochemical; conditions: beta-cyclodextrin derivative (hydroxide propyl beta-cyclodextrin in the examples) to medicine; complex dissolves exactly in water to stable solution
Endpoint name: Critical value mole ratio

GET /values?readout=Critical value mole ratio&item= COc1cc([C@@H]2c3cc4c(cc3[C@@H](O[C@@H]3O[C@@H]5CO[C@@H](C)O[C@H]5[C@H](O)[C@H]3O)[C@H]3COC(=O)[C@H]23)OCO4)cc(OC)c1O [Etoposide]
10

Look at this molecule and give its reported Critical value mole ratio. `CC[C@H]1OC(=O)[C@H](C)[C@@H](O[C@H]2C[C@@](C)(OC)[C@@H](O)[C@H](C)O2)[C@H](C)[C@@H](O[C@@H]2O[C@H](C)C[C@H](N(C)C)[C@H]2O)[C@](C)(O)C[C@@H](C)/C(=N\OCOCCOC)[C@H](C)[C@@H](O)[C@]1(C)O`
18

So what does the record say about Critical value mole ratio for `Clc1ccccc1C(c1ccccc1)(c1ccccc1)n1ccnc1` ?
4

Recorded Critical value mole ratio of `CCCc1nn(C)c2c(=O)[nH]c(-c3cc(S(=O)(=O)N4CCN(C)CC4)ccc3OCC)nc12` , please.
2

Name the recorded Critical value mole ratio for `O=C(O)CCCC[C@@H]1CCSS1` .
1

# Critical value mole ratio lookup, item `CC1(C)S[C@@H]2[C@H](NC(=O)[C@H](N)c3ccccc3)C(=O)N2[C@H]1C(=O)O`
3

Form field: reported Critical value mole ratio of `C[C@@H]1CC[C@H]2[C@@H](C)C(=O)O[C@@H]3O[C@@]4(C)CC[C@@H]1[C@]32OO4`
5

Data request, read-out Critical value mole ratio, for `CC[C@H]1OC(=O)[C@H](C)[C@@H](O[C@H]2C[C@@](C)(OC)[C@@H](O)[C@H](C)O2)[C@H](C)[C@@H](O[C@@H]2O[C@H](C)C[C@H](N(C)C)[C@H]2O)[C@](C)(O)C[C@@H](C)C(=O)[C@H](C)[C@@H](O)[C@]1(C)O`
6

Please give the measured Critical value mole ratio for this molecule: `CC/C(=C(\c1ccccc1)c1ccc(OCCN(C)C)cc1)c1ccccc1`
2

* * *

assay: Critical mole ratio or critical mass ratio of medicines and beta-cyclodextrin derivative (Table 1, examples); type: physicochemical; conditions: beta-cyclodextrin derivative (hydroxide propyl beta-cyclodextrin in the examples) to medicine; complex dissolves exactly in water to stable solution
Endpoint name: Critical value Mass ratio
// no unit, no text: just the number

Reported Critical value Mass ratio, molecule `Clc1ccc2c(c1)C(c1ccccc1)=NCc1nncn1-2` : ____
20

Name the recorded Critical value Mass ratio for CC(CN1c2ccccc2S(=O)(=O)c2ccccc21)N(C)C (centres unmarked) .
2

What does the data say about its Critical value Mass ratio? Entry: `NC(N)=Nc1nc(CSCCC(N)=NS(N)(=O)=O)cs1`
9

Would you kindly share the measured Critical value Mass ratio for `COc1cc(C=O)ccc1O` ?
9

# get_value(readout='Critical value Mass ratio', item= `CC(=O)Nc1ccc(O)cc1` )
3

Item under review: `Cc1nc(C)c(C)nc1C` . Reported Critical value Mass ratio?
12

# query: Critical value Mass ratio of entry `CCS(=O)(=O)CCn1c([N+](=O)[O-])cnc1C`
6.5

Endpoint output: Critical value Mass ratio of `CN1CCC(=C2c3ccccc3CC(=O)c3sccc32)CC1` . Value?
4

* * *

experiment: Critical mole ratio or critical mass ratio of medicines and beta-cyclodextrin derivative (Table 1, examples); format: physicochemical; details: beta-cyclodextrin derivative (hydroxide propyl beta-cyclodextrin in the examples) to medicine; complex dissolves exactly in water to stable solution
Could you label it satisfied if measured Critical value mole ratio is 3 or higher, and not satisfied otherwise?

Reported Critical value mole ratio reaches at least 3 for COc1cc2c(cc1OC)[C@@H]1Cc3ccc(OC)c(OC)c3CN1CC2 [Rotundine] ?
not satisfied

Please tell me: is the molecule CCN1C[C@]2(OC(=O)c3ccccc3NC(C)=O)CC[C@H](OC)[C@@]34[C@@H]2C[C@@H]([C@@H]13)[C@@]1(O)C[C@H](OC)[C@H]2C[C@@H]4[C@]1(O)[C@H]2OC [Lappaconitine] at or over 3 in terms of Critical value mole ratio?
not satisfied

Does the molecule Cc1noc(NS(=O)(=O)c2ccc(N)cc2)c1C [sulfafurazole] have recorded Critical value mole ratio that is 3 or more?
not satisfied

Please check the record CC1CCC(C(C)C)C(O)C1 (stereo not shown) [menthol] and state if its Critical value mole ratio is at or above 3.
not satisfied

Is Critical value mole ratio at least 3? Consider Cc1cc(NS(=O)(=O)c2ccc(N)cc2)no1 [sulfamethoxazole]
not satisfied

// inclusive: Critical value mole ratio at least 3? input: C[C@]12C=CC(=O)C=C1CC[C@@H]1[C@@H]2C(=O)C[C@@]2(C)[C@H]1CC[C@]2(O)C(=O)CO [prednisone]
satisfied

Given O=C(O)c1cn(C2CC2)c2cc(N3CCNCC3)c(F)cc2c1=O [Ciprofloxacin] , state whether its Critical value mole ratio is at least 3.
satisfied

# check: Critical value mole ratio of Cc1ccc(S(=O)(=O)NC(=O)NN2CC3CCCC3C2)cc1 (stereo not shown) [gliclazide] is greater than or equal to 3
not satisfied

Tell me whether Critical value mole ratio is at least 3 here: CC[C@H]1OC(=O)[C@H](C)[C@@H](O[C@H]2C[C@@](C)(OC)[C@@H](O)[C@H](C)O2)[C@H](C)[C@@H](O[C@@H]2O[C@H](C)C[C@H](N(C)C)[C@H]2O)[C@](C)(O)C[C@@H](C)CN(C)[C@H](C)[C@@H](O)[C@]1(C)O [Azithromycin]
satisfied

* * *

Please provide measured Critical value Mass ratio for the entries that follow.
experiment: Critical mole ratio or critical mass ratio of medicines and beta-cyclodextrin derivative (Table 1, examples); assay type: physicochemical; details: beta-cyclodextrin derivative (hydroxide propyl beta-cyclodextrin in the examples) to medicine; complex dissolves exactly in water to stable solution
Kindly provide the number alone.

Given the compound CC(C)CC(N(C)C)C1(c2ccc(Cl)cc2)CCC1 (centres unmarked) [Sibutramine] , what is its reported Critical value Mass ratio?
2

Which Critical value Mass ratio reading was recorded for the compound CC(C)Cc1ccc(C(C)C(=O)O)cc1 (centres unmarked) [Ibuprofen] ?
8

Critical value Mass ratio lookup needed for Cc1ncc([N+](=O)[O-])n1CCO [Metronidazole] , thanks.
9

Data request, read-out Critical value Mass ratio, for Cn1c(=O)c2c(ncn2C)n(C)c1=O [caffein]
4

Can you look up the measured Critical value Mass ratio of CN1C(C(=O)Nc2ccccn2)=C(O)c2ccccc2S1(=O)=O [Piroxicam] for me?
15

I am curious: what Critical value Mass ratio value has been reported for CC1(C)C2CCC1(C)C(O)C2 (centres unmarked) [borneol] ?
6

// query Critical value Mass ratio value for entry CCOC(=O)[N-]c1cn(N2CCOCC2)n[o+]1 [molsidomine]
11

Given the compound NC(=O)CCCCC1CCSS1 (centres unmarked) [thioctamide] , what is its reported Critical value Mass ratio?
7

Value lookup for Critical value Mass ratio; key = CC12CCC(CC1=O)C2(C)C (centres unmarked) [camphor]
8

Request the reported Critical value Mass ratio associated with CCn1cc(C(=O)O)c(=O)c2cc(F)c(N3CCNCC3)cc21 [norfloxacin]
30

Critical value Mass ratio for CC(C)(O)C(Cl)(Cl)Cl [chlorbutanol] ?
6
